- Test system: HCT-15 colon
- experiment.summary: NCI-60 one-dose screen, 48 h
- setup.conditions: 10 µM unless noted
This is part of a sample that, as a whole, favours compounds with a hit. Of some 83,000 tested, about 20% had one in any assay. Activity calls are given as the source filed them. Rule for the calls: active = growth percent below 10; inactive = the rest.
Select the matching outcome among yes for active, no for inactive

Study these solved cases before continuing.
What outcome does the record of this test show for COc1ccc(OC)c2c1CCC1(C2)NC(=O)NC1=O (stereo not given) ?
no

What outcome does the record of this test show for `CCn1cnc(C[C@H](NC(=O)[C@H](CCCCNC(=O)Nc2cc(C(F)(F)F)cc(C(F)(F)F)c2)NC(=O)Nc2cc(C(F)(F)F)cc(C(F)(F)F)c2)C(=O)OC)c1` ?
no

What outcome does the record of this test show for CC[C@@H](C)/C=C(C)/C=C/C(=O)c1c(O)c(-c2ccc(O)cc2)cn(OC2CC(=O)CCC(C)OC(=O)CC2O)c1=O (stereo not given in full) ?
no

What outcome does the record of this test show for CC1CN(CC(O)c2ccc(Br)cc2)CCO1 (stereo not given) ?
no

Next:
What outcome does the record of this test show for `COc1cnc2c(c1)C(=O)c1c-2n(CCCN2CCOCC2)c(=O)c2cc(F)ccc12` ?
yes

What outcome does the record of this test show for `CCOC(=O)/C(=C/CC/C(C)=C/CC/C(C)=C/CCc1ccoc1)CC(=O)N1CCCCC1` ?
no

What outcome does the record of this test show for `Clc1ccc2nc(CI)c(CI)nc2c1` ?
no

What outcome does the record of this test show for `C[C@]12CC[C@H](O)CC1=CC[C@@H]1[C@@H]2CC[C@]2(C)C(c3cccnc3)=CC[C@@H]12` ?
no

What outcome does the record of this test show for CC(NNC(=S)N1CCCCCC1)c1ccc2ccccc2n1 (stereo not given) ?
no

What outcome does the record of this test show for `CCCCCN1C(=O)CCC1=O` ?
no

---

- Test system: MCF7 breast
- experiment.summary: NCI-60 one-dose screen, 48 h (100 = growth as untreated, 0 = no growth, -100 = all killed)
- setup.conditions: 10 µM unless noted
- Procedure: Growth inhibition of the MCF7 human tumor cell line is measured as a screen for anti-cancer activity. Cells are grown in 96 well plates and exposed to the test compound for 48 hours. Compounds are tested at a single concentration, which is 10^-5 M for most compounds. The reported endpoint is percent growth (GI% or GIPRCNT), where numbers from 0 - 100% represent growth inhibition, and numbers from -100% - 0 represent cell death. For example, a value of 40 represents 60% growth inhibition. […]
The panel holds about 83,000 compounds, 20% with a hit somewhere; the sample as a whole holds those more often.
Assign true (1) to entries whose growth meets or exceeds 60%; assign false (0) to the rest.

Does the compound `COc1ccc(C(=O)COc2cccc(/C=C3\CSc4ccc(Cl)cc4C3=O)c2)cc1` have recorded growth that is 60% or more?
false (0)

Does the compound `CSc1nc(Nc2ccc(S(=O)(=O)Nc3ccon3)cc2)c(C#N)c(-c2ccc(Cl)cc2)n1` have recorded growth that is 60% or more?
true (1)

Does the compound `C[C@H](C(=O)N[C@@H](Cc1ccc(-c2ccccc2)cc1)C(=O)NC1CC(C)(C)N(C)C(C)(C)C1)c1ccc(-c2ccccc2)c(F)c1` have recorded growth that is 60% or more?
false (0)

Does the compound CCCCCCC(CC#N)(CCC)CCCC (centres undefined) have recorded growth that is 60% or more?
true (1)

Does the compound `C(#Cc1ccccc1C#Cc1ccccn1)c1ccc(OCCCCCCOc2ccc(C#Cc3ccccc3C#Cc3ccccn3)cc2)cc1` have recorded growth that is 60% or more?
false (0)

Next:
Does the compound `O=C(O)CCNS(=O)(=O)c1ccc(-c2ccccc2)cc1` have recorded growth that is 60% or more?
true (1)

Does the compound `O=C(Nc1cccc(-n2cc(-c3ccncc3)c(-c3cc(O)cc(Cl)c3)n2)c1)Nc1ccc(Cl)c(Cl)c1` have recorded growth that is 60% or more?
false (0)

Does the compound `C=CCN(/C=C/CN(CC=C)CC=C)CC=C` have recorded growth that is 60% or more?
true (1)

Does the compound COc1cc(/C=C/C(=O)CC(=O)/C=C/c2ccc(OC(=O)C3C4CC5CC(C4)CC3C5)c(OC)c2)ccc1OC(=O)C1C2CC3CC(C2)CC1C3 (centres undefined) have recorded growth that is 60% or more?
true (1)

Does the compound `COc1c(Br)cc(C(c2cc(Br)c(OC)c(Br)c2)c2ccccc2C(=O)O)cc1Br` have recorded growth that is 60% or more?
true (1)

Does the compound `C[C@@H]1CN(c2nc3c(cc2F)c(=O)c(C(=O)O)cn3C(C)(C)C)C[C@H](C)N1` have recorded growth that is 60% or more?
true (1)

Does the compound `O=C(Oc1cccc2ccccc12)c1ccccc1C(=O)c1ccccc1` have recorded growth that is 60% or more?
true (1)

---

- Tested on: SN12C renal
- experiment.summary: NCI-60 one-dose screen, 48 h
- setup.conditions: 10 µM unless noted
The panel holds about 83,000 compounds, 20% with a hit somewhere; the sample as a whole holds those more often. The source made the active and inactive calls. How the source made its calls: active means growth percent below 10; inactive means the rest.
Select the matching outcome among class 1 for active, class 0 for inactive

Study these solved cases before continuing.
What outcome does the record of this test show for `COc1ccc(N2CCN(CC(=O)N3CCN(c4nnc(-c5ccc(Cl)cc5)c(-c5ccc(Cl)cc5)n4)CC3)CC2)cc1` ?
class 0

What outcome does the record of this test show for `O=C1c2cccc(NCCN=Cc3ccccc3O)c2C(=O)c2c(NCCN=Cc3ccccc3O)cccc21` ?
class 0

What outcome does the record of this test show for `N#Cc1c(-c2ccccc2)cc(-c2ccccc2)n(CCCC(=O)O)c1=O` ?
class 0

# input for lookup
What outcome does the record of this test show for `CCNCCCn1c2c(c3ccc(F)cc3c1=O)C(=O)c1cc(OC)cnc1-2` ?
class 1

---

- Test system: HOP-92 NSCLC
- experiment.summary: NCI-60 one-dose screen, 48 h (100 = growth as untreated, 0 = no growth, -100 = all killed)
- setup.conditions: 10 µM unless noted
- Method: Growth inhibition of the HOP-92 human Non-Small Cell Lung tumor cell line is measured as a screen for anti-cancer activity. Cells are grown in 96 well plates and exposed to the test compound for 48 hours. Compounds are tested at a single concentration, which is 10^-5 M for most compounds. The reported endpoint is percent growth (GI% or GIPRCNT), where numbers from 0 - 100% represent growth inhibition, and numbers from -100% - 0 represent cell death. […]
Compounds without any hit were thinned out: in the full panel of roughly 83,000, 20% have a hit.
property: growth (%)
Reply with just the number (in %).

Record request: growth value, item `O=c1[nH]cc(Nc2cc(Cl)c3nonc3c2[N+](=O)[O-])c(=O)[nH]1`
95.5

Next:
Record request: growth value, item `Cc1ccc(/C=C(/C#N)n2nnc3ncccc32)cc1`
-19.5

Record request: growth value, item `Cc1cnc2nc(-c3ccc(N(C)C)cc3)cn2c1`
104

Record request: growth value, item `O=C1OC2(c3ccccc31)c1ccccc1-c1ccccc12`
96.9

Record request: growth value, item `COC(=O)C1CCN(S(=O)(=O)c2ccc(-c3ccccc3)cc2)CC1`
86.8

Record request: growth value, item `COc1ccc(-c2cc(-c3cccnc3)nc3sc(C(=O)Nc4ccccc4)c(N)c23)cc1OC`
24.9

Record request: growth value, item `N#Cc1ccccc1C#Cc1ccccc1C#Cc1ccc(OCCCCCCOc2ccc(C#Cc3ccccc3C#Cc3ccccc3C#N)cc2)cc1`
91.6

Record request: growth value, item `Cc1cc(C(=O)Nc2ccc3cc(CN4CCOCC4)ccc3n2)c(C)n1-c1ccccc1`
51.7

Record request: growth value, item `c1ccc2c(-c3nc4ccccc4[nH]3)cccc2c1`
53.3

Record request: growth value, item `COc1cc(NC(=O)NCc2ccco2)ccc1-c1ccc(NC(=O)NCc2ccco2)cc1OC`
23

Record request: growth value, item Nc1nc(NC2CC2)c2ncn(C3C=CC(CO)C3)c2n1 (configuration not stated)
97

---

growth values by entry
- Tested on: OVCAR-3 ovarian
- experiment.summary: NCI-60 one-dose screen, 48 h (100 = growth as untreated, 0 = no growth, -100 = all killed)
- setup.conditions: 10 µM unless noted
About 83,000 compounds went through this panel and 20% of them were active in at least one assay; those are over-represented in the sample as a whole.
Reply with just the number (in %).

Consider the reported growth for these compounds:
Record request: growth value, item COc1cccc(C2=NN(C(C)=O)C(c3cc(OC)c(OC)c(OC)c3)C2)c1 (stereo not given)
33.1

Record request: growth value, item COc1cc(C2CC(C3C(=O)N(C)C(=O)N(C)C3=O)=NN2c2cc(Cl)cc(Cl)c2)cc(OC)c1OC (stereo not given)
97.2

Record request: growth value, item `FC(F)(F)c1cc(-c2nnc3n2N=C(N2CCCC2)CS3)cc(C(F)(F)F)c1`
53.6

Record request: growth value, item `O=C1CNc2cc(Cl)ccc2N1`
108

Now consider a different compound.
Record request: growth value, item `NC(=O)c1cc(Cl)ccc1NC(=O)c1ccccc1-c1ccccc1`
-30.7

Numbers sourced from PubChem BioAssay (NCI).
